- target: Insulin-like growth factor 1 receptor (Homo sapiens)
- details: at 1 µM
reportedProperty: residual activity (%)
Return type: number; implicit unit %.

Would you please look over these solved cases?
{"columns": ["molecule", "unitsSymbol", "residual activity"],
 "data": [
  ["NC(=O)Nc1sc(-c2ccc(F)cc2)cc1C(N)=O", "%", 65],
  ["COc1cc2nccc(Oc3ccc(NC(=S)NC(=O)c4ccccc4C)cc3)c2cc1OC", "%", 87],
  ["CC(C)(C)n1nc(Cc2cccc3ccccc23)c2c(N)ncnc21", "%", 100],
  ["CC(C)c1nn(-c2c(Cl)cccc2Cl)c2nc(Cc3ccc(OCCO)cc3)[nH]c(=O)c12", "%", 105],
  ["COc1cc2ncnc(Nc3cccc(Cl)c3)c2cc1OC", "%", 115]
]}

-- ask Return reported residual activity; argument: "CC(C)[C@H](CO)Nc1nc(Nc2cc(N)cc(Cl)c2)c2ncn(C(C)C)c2n1"
-- reply 75

-- ask Note, next up: O=C(NC(NC(=S)Nc1ccc(F)c([N+](=O)[O-])c1)C(Cl)(Cl)Cl)C(c1ccccc1)c1ccccc1 (configuration not stated)
-- reply 85

-- ask Note, next up: "CCCCc1c(-c2ccc(O)cc2)[nH]c2nccnc12"
-- reply 65

-- ask Note, next up: "O=C(CCCc1ccc(-c2ccccc2F)cc1)Nc1ccc(O)cc1"
-- reply 100

-- ask Note, next up: "O=C1NC(=O)c2c1c1c3ccccc3[nH]c1n1cncc21"
-- reply 45

-- ask Note, next up: "Nc1ncnc2[nH]nc(Nc3ccc(F)cc3)c12"
-- reply 109

-- ask Note, next up: "CCCC(=O)Oc1ccc2[nH]c(C(=O)c3cc4ccccc4[nH]3)cc2c1"
-- reply 93

----------
- target: Ribosomal protein S6 kinase alpha-3 (Homo sapiens)
- details: at 10 µM
# residual activity per entry
Return type: number; implicit unit %.

Would you please look over these solved cases?
{"columns": ["testSmiles", "reportedProperty", "numericReadout"],
 "data": [
  ["CN(C)S(=O)(=O)c1ccc2c(c1)/C(=C/c1cc3c([nH]1)CCCC3)C(=O)N2", "residual activity", 42],
  ["O=C1NC(=O)C(c2c[nH]c3ccccc23)=C1c1c[nH]c2ccccc12", "residual activity", 3],
  ["CCCCc1c(-c2ccc(O)cc2)[nH]c2nccnc12", "residual activity", 29],
  ["CCCCc1c(-c2ccc(OC)cc2)[nH]c2nccnc12", "residual activity", 52]
]}

-- ask Give recorded residual activity with Ribosomal protein S6 kinase alpha-3 (Homo sapiens) for the following compound: "COc1cc2c(cc1OC)-c1n[nH]c(Nc3cccc(F)c3)c1C2"
-- reply 39

-- ask Note, next up: "O=C1NC(=O)c2c1c1c3ccccc3[nH]c1n1cncc21"
-- reply 24

-- ask Note, next up: "O=C1Nc2ccc(Cl)cc2/C1=C/c1cc(Cl)c(O)c(Cl)c1"
-- reply 20

-- ask Note, next up: "O=c1cc(N2CCOCC2)oc2c1ccc1ccccc12"
-- reply 46

-- ask Note, next up: "c1ccc(-c2cnc(Nc3ccc(OCCN4CCCC4)cc3)s2)cc1"
-- reply 36

-- ask Note, next up: "NC(=O)c1ccc(-c2nc(-c3ccc4c(c3)OCCO4)c(-c3ccccn3)[nH]2)cc1"
-- reply 53

-- ask Note, next up: "COc1ccc2c(c1)c(C1=C(c3c[nH]c4ccccc34)C(=O)NC1=O)cn2CCCN(C)C"
-- reply -1
